Taken from patent US20260226037A1.

Consider the following compounds and their measured IC50 ratio between resistant and non-resistant cells readings.
System: MCF7-VP cells
Experiment: XTT cytotoxicity, MCF7-VP
Type: cell-based
Conditions: MCF7-VP / MCF7
Protocol: The cytotoxic activity of the novel family was evaluated against various tumor cells, including myeloma cells, acute lymphoblastic leukemia cells, acute monocytic leukemia cells, chronic myelogenous leukemia cells, pancreatic cancer cells, breast cancer cells, uterine sarcoma cells, cervix adenocarcinoma cells, ovary cancer cells, melanoma cells, osteosarcoma cells, prostate cancer cells, lung cancer cells, neuroblastoma cells and colorectal adenocarcinoma cells by XTT assay.
measuredParameter: IC50 ratio between resistant and non-resistant cells

• CCCCCOC(=O)c1[nH]c2c(c1C)C(O)CC(c1ncco1)C2 (stereo not drawn) = 0.828
• Cc1c(C(=O)OCCCCN)[nH]c2c1C(=O)CC(c1ncco1)C2.Cl.Cl (stereo not drawn) = 1.251
• CC(=O)O[C@H]1C(=O)[C@@]2(C)[C@H]([C@H](OC(=O)c3ccccc3)[C@]3(O)C[C@H](OC(=O)[C@H](O)[C@@H](NC(=O)c4ccccc4)c4ccccc4)C(C)=C1C3(C)C)[C@]1(OC(C)=O)CO[C@@H]1C[C@@H]2O = 0.544
• Cc1c(C(=O)OCCCCN)oc2c1C(=O)CC(c1ncco1)C2.Cl (stereo not drawn) = 1.400
• CCCCCOC(=O)c1[nH]c2c(c1C)C(=O)CC(c1ncco1)C2 (stereo not drawn) = 1.474
• CCC1=C[C@@H]2CN(C1)Cc1c([nH]c3ccccc13)[C@@](C(=O)OC)(c1cc3c(cc1OC)N(C)[C@H]1[C@@](O)(C(=O)OC)[C@H](OC(C)=O)[C@]4(CC)C=CCN5CC[C@]31[C@@H]54)C2 = 1.273
• CCCCCOC(=O)c1[nH]c2c(c1C)C(=O)CC(c1nccs1)C2 (stereo not drawn) = 2.114
• Cc1c(C(=O)OC2CCCC2)[nH]c2c1C(=O)CC(c1ncco1)C2 (stereo not drawn) = 0.029
• CC[C@]1(O)C[C@H]2CN(CCc3c([nH]c4ccccc34)[C@@](C(=O)OC)(c3cc4c(cc3OC)N(C=O)[C@H]3[C@@](O)(C(=O)OC)[C@H](OC(C)=O)[C@]5(CC)C=CCN6CC[C@]43[C@@H]65)C2)C1 [Vincristine, reference compound] = 2.821
• Cc1c(C(=O)OCCCCO)oc2c1C(=O)CC(c1ncco1)C2 (stereo not drawn) = 0.360
• CCCCCOC(=O)c1[nH]c2c(c1C)C(=O)CC(c1ccco1)C2 (stereo not drawn) [SMS001, reference compound] = 1.340
• Cc1c(C(=O)OCCCCO)[nH]c2c1C(=O)CC(c1ncco1)C2 (stereo not drawn) = 0.732

* * *

Test system: NCI-H69 VCR/R cells
Test: XTT cytotoxicity, NCI-H69 VCR/R
Assay type: cell-based
Conditions: Homo sapiens; NCI-H69 VCR/R, vincristine resistant
pIC50: −log10 of the molar value.
measuredParameter: pIC50

• CC[C@]1(O)C[C@H]2CN(CCc3c([nH]c4ccccc34)[C@@](C(=O)OC)(c3cc4c(cc3OC)N(C=O)[C@H]3[C@@](O)(C(=O)OC)[C@H](OC(C)=O)[C@]5(CC)C=CCN6CC[C@]43[C@@H]65)C2)C1 [Vincristine, reference compound] = < 6.00
• CC(=O)O[C@H]1C(=O)[C@@]2(C)[C@H]([C@H](OC(=O)c3ccccc3)[C@]3(O)C[C@H](OC(=O)[C@H](O)[C@@H](NC(=O)c4ccccc4)c4ccccc4)C(C)=C1C3(C)C)[C@]1(OC(C)=O)CO[C@@H]1C[C@@H]2O [Paqlitaxel, paclitaxel] = < 6.00
• CCCCCOC(=O)c1[nH]c2c(c1C)C(=O)CC(c1ncco1)C2 (stereo not shown) [SMS077] = 7.32
• CCC1=C[C@@H]2CN(C1)Cc1c([nH]c3ccccc13)[C@@](C(=O)OC)(c1cc3c(cc1OC)N(C)[C@H]1[C@@](O)(C(=O)OC)[C@H](OC(C)=O)[C@]4(CC)C=CCN5CC[C@]31[C@@H]54)C2 [Vinorelbine] = < 6.00
